Field: IC50. Provide a value for each of the compounds that follow.
System: HCT-116
testName: Antiproliferative activity against human HCT-116 cells assessed as inhibition of cell proliferation incubated for 48 hrs by MTT assay
Assay type: functional, cell-based
testContext: HCT-116, 48 h
Just the number please, in nM, no unit attached.

Quick one: IC50 of CN(c1ccc2c(ccn2C)c1)c1nc(N2CCC(C(=O)OC(C)(C)C)CC2)nc2sccc12 ?
388

Quick one: IC50 of CN(c1ccc2c(ccn2C)c1)c1nc(N2CCCC2)nc2sccc12 ?
2.89

Quick one: IC50 of CCN(c1ccc2c(ccn2C)c1)c1nc(Cl)nc2sccc12 ?
8.28

Quick one: IC50 of CN(c1ccc2c(ccn2C(=O)OC(C)(C)C)c1)c1nc(Cl)nc2sccc12 ?
282

Quick one: IC50 of CCN1CCN(c2nc(N(C)c3ccc4c(ccn4C)c3)c3ccsc3n2)CC1 ?
406

Quick one: IC50 of COc1cc2c(c(OC)c1OC)-c1ccc(OC)c(=O)cc1[C@@H](NC(C)=O)CC2 ?
49.1

Quick one: IC50 of CN(c1ccc2[nH]ccc2c1)c1nc(Cl)nc2sccc12 ?
7.28

Quick one: IC50 of CN(c1ccc2c(ccn2C)c1)c1nc(N2CCN(C(=O)OC(C)(C)C)CC2)nc2sccc12 ?
682

Quick one: IC50 of CC1CCN(c2nc(N(C)c3ccc4c(ccn4C)c3)c3ccsc3n2)CC1 ?
6.21
